Parameter MIC: see the listing below.
System: L49 S. pyogenes C203
Assay: MIC, broth microdilution (CLSI)
Assay type: cell-based
Settings: Streptococcus pyogenes; L49 S. pyogenes C203; THB; read-out: MIC
The figure you give is taken to be in µg/mL; do not add the unit.

COC(=O)c1c(C)cc2c(c1O)[C@]1(O)C(=O)c3cc4c(c(O)c3C(=O)[C@]1(OC)[C@H](O)C2)C(=O)C=C(NC1O[C@@H](C)[C@H](O)[C@@H](O)[C@H]1OC)C4=O (stereo partly shown)	0.125
COC(=O)c1c(C)cc2c(c1O)[C@]1(O)C(=O)c3cc4c(c(O)c3C(=O)[C@]1(OC)[C@H](O)C2)C(=O)C=C(N[C@H]1O[C@@H](C)[C@H](O[C@@H]2CCC(=O)[C@H](C)O2)[C@@H](O)[C@H]1OC)C4=O	0.015

Switching to the query record.
Query COC(=O)c1c(C)cc2c(c1O)[C@]1(O)C(=O)c3cc4c(c(O)c3C(=O)[C@]1(OC)[C@H](O)C2)C(=O)C=C(NC1O[C@@H](C)[C@H](OC2CC[C@H](O)C(C)O2)[C@@H](O)[C@H]1OC)C4=O (stereo partly shown) yields MIC of 0.002

----------
Parameter MIC: see the listing below.
Test system: L2048 B. cenocepacia
Assay: MIC, broth microdilution (CLSI)
Type: cell-based
Settings: Burkholderia cenocepacia; L2048 B. cenocepacia; read-out: MIC

These recorded examples may help you get a feel for the data.
COC(=O)c1c(C)cc2c(c1O)[C@]1(O)C(=O)c3cc4c(c(O)c3C(=O)[C@]1(OC)[C@H](O)C2)C(=O)C=C(NC1O[C@@H](C)[C@H](OC2CC[C@H](O)C(C)O2)[C@@H](O)[C@H]1OC)C4=O (stereo partly shown)	16 µg/mL
COC(=O)c1c(C)cc2c(c1O)[C@]1(O)C(=O)c3cc4c(c(O)c3C(=O)[C@]1(OC)[C@H](O)C2)C(=O)C=C(N[C@H]1O[C@@H](C)[C@H](O[C@@H]2CCC(=O)[C@H](C)O2)[C@@H](O)[C@H]1OC)C4=O	32 µg/mL
COC(=O)c1c(C)cc2c(c1O)[C@]1(O)C(=O)c3cc4c(c(O)c3C(=O)[C@]1(OC)[C@H](O)C2)C(=O)C=C(NC1O[C@@H](C)[C@H](O)[C@@H](O)[C@H]1OC)C4=O (stereo partly shown)	> 128 µg/mL

Switching to the query record.
Query COC(=O)c1c(C)cc2c(c1O)[C@]1(O)C(=O)c3cc4c(c(O)c3C(=O)[C@]1(OC)[C@H](O)C2)C(=O)C=C(NC1O[C@@H](C)[C@H](OC2C[C@H](O)[C@H](O)C(C)O2)[C@@H](O)[C@H]1OC)C4=O (stereo partly shown) yields MIC of 64 µg/mL

----------
Test system: L3294 M. catarrhalis
Experiment: MIC, broth microdilution (CLSI)
Type: cell-based
Conditions: Moraxella catarrhalis; L3294 M. catarrhalis; CAMHB; read-out: MIC
Parameter MIC: see the listing below.
The figure you give is taken to be in µg/mL; do not add the unit.

COC(=O)c1c(C)cc2c(c1O)[C@]1(O)C(=O)c3cc4c(c(O)c3C(=O)[C@]1(OC)[C@H](O)C2)C(=O)C=C(NC1O[C@@H](C)[C@H](OC2C[C@H](O)[C@H](O)C(C)O2)[C@@H](O)[C@H]1OC)C4=O (stereo partly shown)	0.5

Query COC(=O)c1c(C)cc2c(c1O)[C@]1(O)C(=O)c3cc4c(c(O)c3C(=O)[C@]1(OC)[C@H](O)C2)C(=O)C=C(NC1O[C@@H](C)[C@H](OC2CC[C@H](O)C(C)O2)[C@@H](O)[C@H]1OC)C4=O (stereo partly shown) yields MIC of 0.06

Query COC(=O)c1c(C)cc2c(c1O)[C@]1(O)C(=O)c3cc4c(c(O)c3C(=O)[C@]1(OC)[C@H](O)C2)C(=O)C=C(NC1O[C@@H](C)[C@H](O)[C@@H](O)[C@H]1OC)C4=O (stereo partly shown) yields MIC of 0.5

Query COC(=O)c1c(C)cc2c(c1O)[C@]1(O)C(=O)c3cc4c(c(O)c3C(=O)[C@]1(OC)[C@H](O)C2)C(=O)C=C(N[C@H]1O[C@@H](C)[C@H](O[C@@H]2CCC(=O)[C@H](C)O2)[C@@H](O)[C@H]1OC)C4=O yields MIC of 0.125

----------
Parameter MIC: see the listing below.
Test system: L569 E. faecium VanA
Assay: MIC, broth microdilution (CLSI)
Type: cell-based, Enterococcus faecium
Details: Enterococcus faecium, L569 E. faecium VanA; CAMHB; read-out: MIC
The figure you give is taken to be in µg/mL; do not add the unit.

These recorded examples may help you get a feel for the data.
COC(=O)c1c(C)cc2c(c1O)[C@]1(O)C(=O)c3cc4c(c(O)c3C(=O)[C@]1(OC)[C@H](O)C2)C(=O)C=C(N[C@H]1O[C@@H](C)[C@H](O[C@@H]2CCC(=O)[C@H](C)O2)[C@@H](O)[C@H]1OC)C4=O	0.25
COC(=O)c1c(C)cc2c(c1O)[C@]1(O)C(=O)c3cc4c(c(O)c3C(=O)[C@]1(OC)[C@H](O)C2)C(=O)C=C(NC1O[C@@H](C)[C@H](OC2C[C@H](O)[C@H](O)C(C)O2)[C@@H](O)[C@H]1OC)C4=O (stereo partly shown)	4
COC(=O)c1c(C)cc2c(c1O)[C@]1(O)C(=O)c3cc4c(c(O)c3C(=O)[C@]1(OC)[C@H](O)C2)C(=O)C=C(NC1O[C@@H](C)[C@H](O)[C@@H](O)[C@H]1OC)C4=O (stereo partly shown)	16

Switching to the query record.
Query COC(=O)c1c(C)cc2c(c1O)[C@]1(O)C(=O)c3cc4c(c(O)c3C(=O)[C@]1(OC)[C@H](O)C2)C(=O)C=C(NC1O[C@@H](C)[C@H](OC2CC[C@H](O)C(C)O2)[C@@H](O)[C@H]1OC)C4=O (stereo partly shown) yields MIC of 0.5

----------
Parameter MIC: see the listing below.
Tested on: L3030 A. baumannii
Test: MIC, broth microdilution (CLSI)
Type: cell-based
Settings: Acinetobacter baumannii; L3030 A. baumannii; read-out: MIC
Method: Inocula are: 2-5×10^5 CFU/mL for Gram positive and Gram negative bacteria; 10^4 CFU/mL for Candida albicans. The effect of 30% bovine serum is determined under the same experimental conditions. Cultures are incubated at 35° C. in air. After 18-24 hours visual readings are performed and MICs determined. The MIC (Minimal Inhibitory Concentration) is defined as the lower concentration of antibiotic at which there is no visible growth. […]
The figure you give is taken to be in µg/mL; do not add the unit.

These recorded examples may help you get a feel for the data.
COC(=O)c1c(C)cc2c(c1O)[C@]1(O)C(=O)c3cc4c(c(O)c3C(=O)[C@]1(OC)[C@H](O)C2)C(=O)C=C(NC1O[C@@H](C)[C@H](OC2CC[C@H](O)C(C)O2)[C@@H](O)[C@H]1OC)C4=O (stereo partly shown)	16
COC(=O)c1c(C)cc2c(c1O)[C@]1(O)C(=O)c3cc4c(c(O)c3C(=O)[C@]1(OC)[C@H](O)C2)C(=O)C=C(N[C@H]1O[C@@H](C)[C@H](O[C@@H]2CCC(=O)[C@H](C)O2)[C@@H](O)[C@H]1OC)C4=O	16

Query COC(=O)c1c(C)cc2c(c1O)[C@]1(O)C(=O)c3cc4c(c(O)c3C(=O)[C@]1(OC)[C@H](O)C2)C(=O)C=C(NC1O[C@@H](C)[C@H](OC2C[C@H](O)[C@H](O)C(C)O2)[C@@H](O)[C@H]1OC)C4=O (stereo partly shown) yields MIC of 128
